System: P388 leukemia ip, CD2F1 mice, survival T/C
Assay: NCI In Vivo Anticancer Drug Screen. Data for tumor model P388 Leukemia (intraperitoneal) in CD2F1 (CDF1) mice
Settings: endpoint: median survival time; dose: 50.0 mg/kg/injection; schedule: Q01DX009 (ip); vehicle: Klucel (hydroxypropylcellulose) (HPC); higher = longer survival
Inconclusive results and toxic doses are left out.
Listing of entries alongside the reported T/C.

- compound: "COc1cccc(/C=C2\\CCc3ccccc3C2=O)c1"
  T/C: "100 % of control"
- compound: "COC1/C=C\\OC2(C)Oc3c(C)c(O)c4c(O)c(c5sc(N)nc5c4c3C2=O)NC(=O)/C(C)=C\\C=C\\C(C)C(O)C(C)C(O)C(C)C(OC(C)=O)C1C (stereo not given)"
  T/C: "102 % of control"
- compound: "COc1cc2c(O)c3c(c(-c4ccc5c(c4)OCO5)c2cc1OC)C(=O)OC3"
  T/C: "100 % of control"
- compound: "Cc1ccc(-n2c(COc3c(C)cccc3C)n[nH]c2=S)cc1"
  T/C: "109 % of control"
- compound: "CCC1(c2ccccc2)C(=O)N(C)C(=O)N(CCCl)C1=O (stereo not given)"
  T/C: "96 % of control"
- compound: "CNC(=O)c1cc([N+](=O)[O-])cnc1NC"
  T/C: "95 % of control"
- compound: "O=C(Nc1ccc(F)cc1F)Oc1cccc2cccnc12"
  T/C: "114 % of control"
- compound: "CP1(=S)C=C(NC2CCCCC2)CC1 (stereo not given)"
  T/C: "110 % of control"
- compound: "COc1ccc(OC)c(NC(=O)Sc2c(Cl)c(Cl)nc(Cl)c2Cl)c1"
  T/C: "120 % of control"
- compound: "CCOC(=O)Nc1cc2c(c(N)n1)N=C(CN(C)c1ccccc1)CN2"
  T/C: "98 % of control"
- compound: "CN1CCC(C(c2ccccc2)c2ccccc2)C1 (stereo not given)"
  T/C: "105 % of control"
- compound: "CSC(=Nc1ccc(C)c(Cl)c1)NC#N"
  T/C: "98 % of control"
- compound: "COC(=O)c1ccc(SCCC(=O)CSc2ccc(C(=O)OC)cc2)cc1"
  T/C: "98 % of control"
- compound: "CCOC(=O)C(CCc1ccc(N(CCCl)CCCl)cc1)(NC(C)=O)C(=O)OCC"
  T/C: "116 % of control"
- compound: "COc1ccc(/C=C2\\NC(c3ccccc3)OC2=O)cc1OC (stereo not given)"
  T/C: "98 % of control"
- compound: "COc1ccccc1C1CC(c2ccccc2)=Nc2ccccc2S1 (stereo not given)"
  T/C: "96 % of control"
- compound: "C=CC12CCCCC1CCC(=O)C2 (stereo not given)"
  T/C: "111 % of control"
- compound: "CCOC(=O)Cc1ccc(-c2cn3c(n2)sc2ccccc23)cc1"
  T/C: "112 % of control"
- compound: "CC1=NNC(=O)C1"
  T/C: "86 % of control"
- compound: "Cc1ccc(S(=O)(=O)N(CCCc2ccccc2)S(=O)(=O)c2ccc(C)cc2)cc1"
  T/C: "96 % of control"
- compound: "N#CC1C(=O)NC(=O)C(C#N)C1c1ccc(Cl)cc1Cl (stereo not given)"
  T/C: "96 % of control"
- compound: "CC(C)Sc1nc2ccc(NC(=O)/C=C/C(=O)O)cc2s1"
  T/C: "100 % of control"
- compound: "CC(C)(O)c1cccc2c(C(C)(C)O)cccc12"
  T/C: "88 % of control"
- compound: "CCN(CC)CCCC(CCl)Nc1ccnc2cc(Cl)ccc12 (stereo not given)"
  T/C: "113 % of control"
- compound: "CC(C)(C)n1nnnc1Cl"
  T/C: "107 % of control"

Where these numbers come from: PubChem BioAssay AID330
